- ASSAY COMMENT: Pharmacokinetics of 2DG in plasma
- Type: in vivo, patients
- CONDITION SUMMARY: cycle 1, 45 mg/kg/day oral, n = 4, mean ± SD
ASSAY ENDPOINT: Cmax (µM)
Lab book: enter the figure in µM, no units written.

Input: Would you kindly share the measured Cmax for O=CC[C@@H](O)[C@H](O)[C@H](O)CO [2DG, 2-deoxyglucose] ?
Output: 449

* * *

- ASSAY COMMENT: Pharmacokinetics of 2DG in plasma
- Type: in vivo, patients
- CONDITION SUMMARY: human, plasma, po, 60 mg/kg, Cmax, dose level 60 mg/kg oral
ASSAY ENDPOINT: Cmax

Input: Would you kindly share the measured Cmax for `O=CC[C@@H](O)[C@H](O)[C@H](O)CO` ?
Output: 122 µg/mL

* * *

- ASSAY COMMENT: Pharmacokinetics of 2DG in plasma
- Type: in vivo, patients
- CONDITION SUMMARY: human, plasma, po, 30 mg/kg, Cmax, dose level 30 mg/kg oral
ASSAY ENDPOINT: Cmax

Input: Would you kindly share the measured Cmax for `O=CC[C@@H](O)[C@H](O)[C@H](O)CO` ?
Output: 45000 ng/mL

* * *

- ASSAY COMMENT: Pharmacokinetics of 2DG in plasma
- Type: in vivo, patients
- CONDITION SUMMARY: human, plasma, po, 45 mg/kg, Cmax, dose level 45 mg/kg oral
ASSAY ENDPOINT: Cmax (µg/mL)
Lab book: enter the figure in µg/mL, no units written.

Input: Would you kindly share the measured Cmax for `O=CC[C@@H](O)[C@H](O)[C@H](O)CO` ?
Output: 73.7
